test system: OVCAR-4 ovarian; assay: NCI tumour cell line growth inhibition, 48 h
Entries and their TGI values follow.

| compound | op | TGI [µM] |
| --- | --- | --- |
| CCOC(=O)/C=C1/Nc2cc(F)c(F)cc2NC1=O | > | 100 |
| COc1cc(/C=C2\CCc3ccccc3C2=O)cc(OC)c1OC | = | 60.8 |
| CC(C)[C@@H](CS(=O)(=O)C(C)C)N1C(=O)[C@@](C)(CC(=O)O)C[C@H](c2cccc(Cl)c2)[C@H]1c1ccc(Cl)cc1 | > | 75.9 |
| C1C[OH+]CC[OH+]CC[OH+]CC[OH+]CC[OH+]CC[OH+]1.[Cl-].[Ta+5] | > | 100 |
| C=CCNC(=S)OCCCCCCCCCC | = | 30.5 |
| C=C(COC(=O)C(C)C)[C@H]1Oc2ccc(C(C)=O)cc2[C@@H]1OC(=O)C(C)C | > | 100 |
| CCOC(=O)O/N=C1/C(c2c(O)[nH]c3ccccc23)=Nc2ccccc21 | = | 45.2 |
| COC1=C(OC)C(=O)C(Cc2c(Cl)nc3n2CCS3)=C(C)C1=O | = | 21 |
| CCOC(=O)CN(Cc1ccccc1)Cc1c(C(=O)c2ccccc2)c2ccccc2n1C(=O)c1ccccc1 | > | 100 |
| COP1(=S)OCC2CCC[C@@H]2O1 (stereo not given in full) | > | 100 |

---

Reported TGI values for the following compounds.
test system: OVCAR-3 ovarian; test: NCI tumour cell line growth inhibition, 48 h

| compound | unit text | op | TGI |
| --- | --- | --- | --- |
| CN(C)CCCC(=O)Nc1ccc(Cn2nnc3c2C(=O)c2nnn(Cc4ccc(NC(=O)CCCN(C)C)cc4)c2C3=O)cc1 | µM | = | 6.02 |
| COc1cc([C@@H]2c3cc4c(cc3[C@@H](Nc3ccc(NC(=O)c5cc(NC(=O)c6cc([N+](=O)[O-])cn6C)cn5C)cc3)[C@H]3COC(=O)[C@H]23)OCO4)cc(OC)c1O | µM | > | 100 |
| COc1cc(/C=C/C(=O)c2cc(OC)c(OC)c(OC)c2)cc(OC)c1OC | µM | = | 4.21 |
| CC(C)(C)c1nnc2n(c1=O)N=CC(c1ccc(Br)cc1)S2 (centres undefined) | µM | = | 70.8 |
| COC(=O)c1cc2c(cc1Cl)SC(N(N(C)C)S(=O)(=O)c1ccc(Cl)cc1)=NS2(=O)=O | µM | = | 37.8 |
| Cc1oc2c(C)c3oc(=O)cc(C)c3cc2c1CN | µM | > | 100 |
| Cc1nc2sccn2c1C(=O)OCCOCCOCCOCCOC(=O)c1c(C)nc2sccn12 | µM | > | 100 |
| CCCCc1nc2cc(/C=C/C(=O)NO)ccc2n1CCN(CC)CC | µM | = | 1.83 |
| COC1=C(OC)C(=O)C(Cc2c(Cl)nc3n2CCS3)=C(C)C1=O | µM | = | 37.2 |

---

Each item that follows carries a reported TGI.
test system: SK-MEL-2 melanoma; experiment: NCI tumour cell line growth inhibition, 48 h

| compound | TGI |
| --- | --- |
| Clc1ccc(-c2nn3c(C45CC6CC(CC(C6)C4)C5)nnc3s2)cc1 | > 100 µM |
| CN1N(c2ccccc2)C(=O)C2=NC=C(C#N)C(=N)C21C (stereo unspecified) | > 100 µM |
| C=CCNC(=S)OCCCCCCCCCC | 24.8 µM |
| O=C(c1ccccc1)n1[nH]c(=O)n(-c2ccc(Cl)cc2)c1=O | > 100 µM |
| CCOC(=O)/C=C1/Nc2cc(F)c(F)cc2NC1=O | > 100 µM |
| CN(/N=C/c1ccc(Cl)c(Cl)c1)C1=NCCN1 | 43.6 µM |
